Test: AUC in Beagle dog under fed condition at 10 mg, po
Type: ADME, organism-based, Canis lupus familiaris
Conditions: plasma
quantity-kind: AUC (ng·h/mL)
Enter your answer as a number in ng·h/mL; do not include the unit.

What does the data say about its AUC? Entry: CN1CCc2nc(C(=O)N[C@@H]3C[C@@H](C(=O)N(C)C)CC[C@@H]3NC(=O)c3cc4cc(Cl)ccc4[nH]3)sc2C1
40

* * *

Test: Protein binding in human serum at 100 uM after 60 mins by LC/MS-MS
Assay type: ADME, cell-free
Conditions: read-out: PB (converted)
Please go through the items and note down their fraction unbound at 1 h, 100 µM.
Returns: the value as a bare number; no unit string appended.

Return reported fraction unbound at 1 h, 100 µM; argument: CN1Cc2nc(C(=O)N[C@@H]3C[C@@H](C(=O)N(C)C)CC[C@@H]3NC(=O)c3cc4cc(Cl)ccc4[nH]3)sc2C1
0.32

Would you kindly share the measured fraction unbound at 1 h, 100 µM for CN1Cc2nc(C(=O)N[C@@H]3C[C@@H](C(=O)N(C)C)CC[C@@H]3NC(=O)c3ccc4cc(Cl)ccc4c3)sc2C1 ?
0.3

Quick check: fraction unbound at 1 h, 100 µM of CN1Cc2nc(C(=O)N[C@@H]3C[C@@H](C(=O)N(C)C)CC[C@@H]3NC(=O)c3cc4ccc(Cl)cc4cn3)sc2C1 ?
0.52
